These measurements were taken from patent US7432260B2.

# Assay target: CDK2/cyclin E (Homo sapiens)
# Assay remarks: Kinase assay CDK2/cyclin E
# Format: biochemical
# Condition parameters: Table 2; read-out: Kinase Inhibition IC50 CDK2 cyclin E
Observable: IC50

# annotated cases, reported IC50 shown
CC(=O)NCc1cccc(Nc2nccc(-c3sc(C)nc3C)n2)c1 = 110 nM
Cc1nc(C)c(-c2ccnc(Nc3ccc(N4CCNCC4)cc3)n2)s1 = 710 nM
Cc1c(-c2ccnc(Nc3ccc(N4CCOCC4)cc3)n2)sc(=O)n1C = 640 nM
COc1cccc(Nc2nccc(-c3sc(NC(=O)CCN4CCOCC4)nc3C)n2)c1 = 1200 nM
Cc1nc(NC(=O)CN2CCN(C(=O)OC(C)(C)C)CC2)sc1-c1ccnc(Nc2cccc([N+](=O)[O-])c2)n1 = 2600 nM
Cc1nc(NC(=O)CCN)sc1-c1ccnc(Nc2cccc([N+](=O)[O-])c2)n1 = 280 nM
COc1ccc(Nc2nccc(-c3sc(NC(=O)CCN4CCN(C)CC4)nc3C)n2)cc1 = 64000 nM

Shift focus to the following entry.
// Cc1nc(NC(=O)[C@H](N)[C@@H](C)O)sc1-c1ccnc(Nc2cccc([N+](=O)[O-])c2)n1 : IC50 value = 130 nM

###

# Assay target: CDK2/cyclin A (Homo sapiens)
# Assay remarks: Kinase assay CDK2/cyclin A
# Format: biochemical
# Condition parameters: Table 2; read-out: Kinase Inhibition IC50 CDK2 cyclin A
Observable: IC50 (nM)
Please state the figure in nM; there is no need to write the unit.

# annotated cases, reported IC50 shown
Cc1nc(NC(=O)CCN2CCN(C)CC2)sc1-c1ccnc(Nc2cccc([N+](=O)[O-])c2)n1 = 1400
CC[C@@H](N)C(=O)Nc1nc(C)c(-c2ccnc(Nc3cccc([N+](=O)[O-])c3)n2)s1 = 650
Cc1nc(N)sc1-c1ccnc(Nc2cccc(S(C)(=O)=O)c2)n1 = 50
Cc1nc(C)c(-c2ccnc(Nc3ccc(NC(=O)CCl)cc3)n2)s1 = 890

// Cc1nc(NC(=O)[C@H](N)[C@@H](C)O)sc1-c1ccnc(Nc2cccc([N+](=O)[O-])c2)n1 : IC50 value = 850
